# assayed.target: Sigma intracellular receptor 2 (Rattus norvegicus, UniProt Q5U3Y7)
# Sequence (Q5U3Y7 whole entry): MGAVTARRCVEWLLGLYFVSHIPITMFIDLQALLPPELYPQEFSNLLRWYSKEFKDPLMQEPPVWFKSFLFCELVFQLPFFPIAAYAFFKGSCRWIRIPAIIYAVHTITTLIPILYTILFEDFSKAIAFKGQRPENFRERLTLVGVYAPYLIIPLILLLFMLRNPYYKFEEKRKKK
# assay.procedure: Displacement of [3H]-di-o-tolylguanidine from sigma2 receptor in rat liver membranes incubated for 120 mins in the presence of sigma1 receptor ligand (+)-pentazocine by scintillation counting method
endpoint.label: Ki (nM)

- CCN(CCCc1ccccc1)C1CCc2ccsc2CC1 (stereo unspecified): 33
- CN(CCc1ccccc1)C1CCc2cc(CO)sc2CC1 (stereo unspecified): 48
- OCc1cc2c(s1)CCC(NCCCCc1ccccc1)CC2 (stereo unspecified): 73
- CN(CCc1ccccc1)C1CCc2ccsc2CC1 (stereo unspecified): 63
- Brc1cc2c(s1)CCC(NCCCCc1ccccc1)CC2 (stereo unspecified): 13

P: OCc1cc2c(s1)CCC(NCCCc1ccccc1)CC2 (stereo unspecified)
Q: Oc1ccc(-c2cc3c(s2)CCC(NCCCc2ccccc2)CC3)cc1 (stereo unspecified)
R: CN(Cc1ccccc1)C1CCc2ccsc2CC1 (stereo unspecified)
S: CCN(Cc1ccccc1)C1CCc2ccsc2CC1 (stereo unspecified)
// smallest Ki at index 0, largest at the end Answer by naming the labels in the order asked.
P, Q, R, S
(P: 30 nM, Q: 63 nM, R: 91 nM, S: 149 nM)

a: c1ccc(CCNC2CCc3ccsc3CC2)cc1 (stereo unspecified)
b: CCN(CCc1ccccc1)C1CCc2ccsc2CC1 (stereo unspecified)
In terms of reported Ki, does a or b have the smaller number? Indicate which entry you chose by stating its label.
a

###

# assayed.target: Sigma non-opioid intracellular receptor 1 (Cavia porcellus)
# Sequence (Q60492 whole entry): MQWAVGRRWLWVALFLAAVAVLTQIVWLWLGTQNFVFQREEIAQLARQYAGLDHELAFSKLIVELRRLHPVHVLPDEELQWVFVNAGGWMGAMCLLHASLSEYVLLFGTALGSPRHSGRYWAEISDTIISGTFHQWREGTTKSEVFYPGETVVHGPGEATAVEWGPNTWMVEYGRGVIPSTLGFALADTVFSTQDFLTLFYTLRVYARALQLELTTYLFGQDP
# assay.procedure: Displacement of [3H]-(+)-pentazocine from sigma1 receptor in guinea pig brain membranes incubated for 120 mins by scintillation counting method
endpoint.label: Ki (nM)

1: CN(CCCCc1ccccc1)C1CCc2ccsc2CC1 (stereo not drawn)
2: CN(Cc1ccccc1)C1CCc2ccsc2CC1 (stereo not drawn)
Among 1 and 2 , which shows a numerically higher Ki result? Pick one and reply with its label.
2

A: CN(CCCc1ccccc1)C1CCc2cc(CO)sc2CC1 (stereo not drawn)
B: CN(CCc1ccccc1)C1CCc2cc(CO)sc2CC1 (stereo not drawn)
C: CN(CCCc1ccccc1)C1CCc2ccsc2CC1 (stereo not drawn)
Reorder the items by Ki, least to greatest. A complete answer lists every label in the requested sequence.
A, C, B

a: c1ccc(CCCCNC2CCc3ccsc3CC2)cc1 (stereo not drawn)
b: c1ccc(CCNC2CCc3ccsc3CC2)cc1 (stereo not drawn)
# min-compare on Ki between a and b Label of pick, please.
a

I: OCc1cc2c(s1)CCC(NCCCCc1ccccc1)CC2 (stereo not drawn)
II: Brc1cc2c(s1)CCC(NCCCCc1ccccc1)CC2 (stereo not drawn)
III: c1ccc(CCCNC2CCc3ccsc3CC2)cc1 (stereo not drawn)
List by increasing Ki. Present the labels in the sequence the task asks for.
II, I, III

###

# assayed.target: Sigma intracellular receptor 2 (Rattus norvegicus, UniProt Q5U3Y7)
# assay.procedure: Displacement of [3H]-di-o-tolylguanidine from sigma2 receptor in rat liver membranes incubated for 120 mins in the presence of sigma1 receptor ligand (+)-pentazocine by scintillation counting method
endpoint.label: Ki (nM)

Check out these entries, answers already filled in.
- c1ccc(CCCCNC2CCc3ccsc3CC2)cc1 (configuration not stated): 5.7
- CN(CCCc1ccccc1)C1CCc2ccsc2CC1 (configuration not stated): 13
- Brc1cc2c(s1)CCC(NCCCc1ccccc1)CC2 (configuration not stated): 43

P: CN(CCCc1ccccc1)C1CCc2cc(CO)sc2CC1 (configuration not stated)
Q: c1ccc(CCCNC2CCc3ccsc3CC2)cc1 (configuration not stated)
R: CCN(CCCCc1ccccc1)C1CCc2ccsc2CC1 (configuration not stated)
S: CN(CCCCc1ccccc1)C1CCc2ccsc2CC1 (configuration not stated)
Reorder: Ki, max to min. Provide the labels, sequenced as the question asks.
R, P, S, Q
(R: 46 nM, P: 21 nM, S: 12 nM, Q: 5.1 nM)

###

# assayed.target: Sigma non-opioid intracellular receptor 1 (Cavia porcellus)
# assay.procedure: Displacement of [3H]-(+)-pentazocine from sigma1 receptor in guinea pig brain membranes incubated for 120 mins by scintillation counting method
endpoint.label: Ki (µM)

- CCN(CCCc1ccccc1)C1CCc2ccsc2CC1 (stereo not drawn): 0.017
- CCN(CCCCc1ccccc1)C1CCc2ccsc2CC1 (stereo not drawn): 0.012
- CN(CCc1ccccc1)C1CCc2ccsc2CC1 (stereo not drawn): 0.042

Taken from ChEMBL document CHEMBL4610008.
